target: T1, human ROR1 (hROR1) on cells (human, UniProt Q01973 30-937); experiment: flow cytometry (FACS) on A549 cells (endogenous ROR1), antibody 0.01-100 nM, median fluorescence intensity
T1 construct: whole, on cells; the cell line is named under assay; also called HEK293T-hROR1; 293T-hROR1
T1 sequence (Q01973 30-937): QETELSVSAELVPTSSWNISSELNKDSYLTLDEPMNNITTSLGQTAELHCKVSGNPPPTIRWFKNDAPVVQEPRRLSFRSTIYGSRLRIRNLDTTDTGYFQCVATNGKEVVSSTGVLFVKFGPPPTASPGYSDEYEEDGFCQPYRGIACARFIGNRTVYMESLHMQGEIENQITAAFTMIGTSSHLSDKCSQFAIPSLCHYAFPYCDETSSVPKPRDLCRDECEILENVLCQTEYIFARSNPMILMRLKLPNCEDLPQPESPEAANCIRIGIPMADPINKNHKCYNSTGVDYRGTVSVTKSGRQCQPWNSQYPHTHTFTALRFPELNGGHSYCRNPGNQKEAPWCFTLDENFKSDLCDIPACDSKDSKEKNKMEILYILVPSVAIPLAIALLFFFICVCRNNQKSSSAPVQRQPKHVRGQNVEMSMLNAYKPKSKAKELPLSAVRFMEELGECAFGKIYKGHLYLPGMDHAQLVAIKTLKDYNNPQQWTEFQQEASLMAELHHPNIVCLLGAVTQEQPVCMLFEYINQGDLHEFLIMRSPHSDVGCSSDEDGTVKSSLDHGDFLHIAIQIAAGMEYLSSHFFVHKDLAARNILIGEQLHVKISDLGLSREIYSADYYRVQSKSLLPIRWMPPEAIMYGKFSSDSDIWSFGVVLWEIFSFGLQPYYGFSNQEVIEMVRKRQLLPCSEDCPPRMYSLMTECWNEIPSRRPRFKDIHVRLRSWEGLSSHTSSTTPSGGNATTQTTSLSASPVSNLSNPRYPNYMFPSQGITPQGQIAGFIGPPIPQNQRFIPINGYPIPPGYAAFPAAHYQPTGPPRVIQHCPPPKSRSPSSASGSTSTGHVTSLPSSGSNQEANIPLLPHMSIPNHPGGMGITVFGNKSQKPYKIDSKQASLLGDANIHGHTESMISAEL
reported-endpoint: EC50 (read off the curve)

**Query** Any idea what its EC50 (read off the curve) is? The binder is PR001416 (antibody, human IgG1, kappa, V domains shown, fully human IgG1, kappa) VH: QVQLVESGGGVVQPGRSLRLSCAASGFTFSTYGMHWVRQAPGKGLEWVAVIWYDGSDKDYADSVKGRFTISRDTSKNTLYLQMNSLRAEDTAVYYCAREQARSFDLWGRGTLVTVSS VL: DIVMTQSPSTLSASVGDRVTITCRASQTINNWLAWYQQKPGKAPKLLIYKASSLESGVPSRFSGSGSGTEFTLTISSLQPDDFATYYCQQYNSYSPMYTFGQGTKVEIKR
**Result** ~400 pM

Values compiled from patent US20240010721A1.
